All figures here come from patent US9981909B2.

tested.on: human SERT (Homo sapiens (Human), UniProt P31645)
Sequence (P31645 whole entry): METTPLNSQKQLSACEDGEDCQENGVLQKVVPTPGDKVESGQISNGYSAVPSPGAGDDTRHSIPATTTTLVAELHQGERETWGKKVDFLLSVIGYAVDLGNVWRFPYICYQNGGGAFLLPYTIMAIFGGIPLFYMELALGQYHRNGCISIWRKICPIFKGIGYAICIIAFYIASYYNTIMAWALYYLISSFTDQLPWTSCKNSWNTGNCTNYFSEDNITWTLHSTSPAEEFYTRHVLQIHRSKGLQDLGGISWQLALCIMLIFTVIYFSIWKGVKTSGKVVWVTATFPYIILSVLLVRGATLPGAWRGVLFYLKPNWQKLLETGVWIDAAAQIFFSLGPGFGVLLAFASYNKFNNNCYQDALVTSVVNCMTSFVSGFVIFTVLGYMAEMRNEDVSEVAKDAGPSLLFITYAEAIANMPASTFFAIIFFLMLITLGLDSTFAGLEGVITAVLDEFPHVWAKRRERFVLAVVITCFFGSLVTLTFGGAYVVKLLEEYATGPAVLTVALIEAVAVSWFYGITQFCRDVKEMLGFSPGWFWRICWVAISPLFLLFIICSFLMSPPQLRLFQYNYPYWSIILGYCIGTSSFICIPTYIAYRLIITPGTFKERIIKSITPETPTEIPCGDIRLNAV
Counter-ions that a name gives are not always drawn.
measured.quantity: Ki (nM)
Numbers only, in nM.

Example entries begin here.
Cc1ccc2c(c1)C(Oc1ccc(Cl)cc1OC1CNC1)CC2 (racemic)	67
CC(Oc1ccc(Cl)cc1OC1CN(Cc2ccccc2)C1)c1cccc(C(F)(F)F)c1 (racemic)	5000
FC(F)(F)c1cccc(COc2ccc(Cl)cc2OC2CNC2)c1	4
Clc1ccccc1COc1ccc(Br)cc1OC1CNC1 [Example 15, trifluoroacetate]	5
Fc1ccc2c(c1)CCC2Oc1ccc(Br)cc1OC1CNC1 (racemic)	13

For each of the compounds below, state Ki.
1. C[C@@H]1[C@H](Oc2cc(Br)ccc2OCc2cccc(F)c2)CN1Cc1ccccc1 (relative stereo)
2. Clc1cccc(COc2ccc(Cl)cc2OC2CNC2)c1
3. CON=C(COc1ccc(Cl)cc1OC1CNC1)c1ccccc1

1: 789; 2: 7; 3: 514

For each of the compounds below, state Ki.
1. CN1CC[C@@H](Oc2cc(Cl)ccc2OCc2cccc(Cl)c2)C1
2. CC(Oc1ccc(Br)cc1OC1CNC1)c1cccc(Cl)c1 (racemic)
3. O=C(c1ccc2c(c1)OCO2)c1ccc(Br)cc1OC1CNC1
4. Brc1ccc(OC2Cc3ccccc3C2)c(OC2CNC2)c1
5. N#Cc1cccc(COc2ccc(Br)cc2OC2CNC2)c1
6. ON=C(COc1ccc(Cl)cc1OC1CNC1)c1ccccc1
7. FC(F)(F)c1ccc(OCc2ccc(C(F)(F)F)o2)c(OC2CNC2)c1

1. 353
2. 118
3. 437
4. 42
5. 2
6. 967
7. 128

* * *

tested.on: rat 5-HT7 receptor (Rattus norvegicus (Rat))
Sequence (P32305 1-435): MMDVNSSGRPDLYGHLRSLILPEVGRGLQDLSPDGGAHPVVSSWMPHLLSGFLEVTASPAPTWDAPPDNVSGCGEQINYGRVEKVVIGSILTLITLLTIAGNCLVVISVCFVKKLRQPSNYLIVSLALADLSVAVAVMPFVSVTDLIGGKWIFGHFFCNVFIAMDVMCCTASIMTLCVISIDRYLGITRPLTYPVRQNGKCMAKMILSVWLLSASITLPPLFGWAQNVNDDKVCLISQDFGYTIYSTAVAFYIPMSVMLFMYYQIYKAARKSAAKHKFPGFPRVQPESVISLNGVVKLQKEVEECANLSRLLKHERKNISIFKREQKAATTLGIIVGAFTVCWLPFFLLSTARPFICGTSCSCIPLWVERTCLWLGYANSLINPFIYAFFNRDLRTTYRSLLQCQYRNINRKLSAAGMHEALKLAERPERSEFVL
procedure.details: r5-HT7 binding assay, competitive radioligand binding with [3H]5-CT
experimental.parameters: rat 5-HT7 receptor, HEK-293 membranes
Where a name gives a salt, the structure may show the parent alone.
Binary call on Ki with cut-off 20 nM: strictly below means satisfied, and equality or higher means not satisfied.

Consider the worked cases shown below.
FC(F)(F)c1ccc2c(c1)C(Oc1ccc(Br)cc1OC1CNC1)CC2 (racemic)	satisfied
CCCN1CC(Oc2cc(Br)ccc2OCc2cccc(Cl)c2)C1	satisfied
CC(Oc1ccc(Cl)cc1OC1CCNCC1)c1cccc(Cl)c1 (racemic)	not satisfied
CC(Oc1ccc(Cl)cc1OC1CNC1)c1nccs1 (stereo not shown)	not satisfied
Clc1ccccc1COc1ccc(Br)cc1OC1CNC1 [Example 15, trifluoroacetate]	satisfied

Decide: Ki of FC(F)(COc1ccc(Cl)cc1OC1CNC1)c1ccccc1 strictly below 20 nM? not satisfied

Decide: Ki of N#Cc1cccc(COc2ccc(Cl)cc2OC2CNC2)c1 strictly below 20 nM? not satisfied

* * *

Where a name gives a salt, the structure may show the parent alone.
What follows is a collection of pKi values obtained with human SERT (Homo sapiens (Human)).
Give bare numbers, as −log10 of the molar value.

Example entries begin here.
Fc1cccc(CCOc2ccc(Cl)cc2OC2CNC2)c1 [Example 191]	8.15
C[C@@H]1NC[C@H]1Oc1cc(Br)ccc1OCc1cccc(F)c1 (racemic) [Example 219]	7.17
Clc1ccc(COc2ccc(Br)cc2OC2CNC2)cc1 [Example 14, trifluoroacetate]	7.28

For each of the compounds below, state pKi.
1. Clc1ccc(OCc2ccccc2)c(OC2CNC2)c1 [Example 40]
2. Brc1ccc(Oc2ccccc2)c(OC2CNC2)c1 [Example 244, 3-(5-Bromo-2-phenoxy-phenoxy)-azetidine]
3. Cc1nc(COc2ccc(Cl)cc2OC2CNC2)cs1 [Example 29]
4. Brc1ccc(OCc2ccccc2)c(OC2CNC2)c1 [Example 1]
5. COc1cccc(CCOc2ccc(Cl)cc2OC2CNC2)c1 [Example 190]

1: 7.37; 2: 5.30; 3: 7.57; 4: 7.32; 5: 6.68

For each of the compounds below, state pKi.
1. CC(Oc1ccc(Cl)cc1OC1CNC1)c1nc2ccccc2s1 (stereo not drawn) [Example 131]
2. COc1cccc(COc2ccc(Cl)cc2OC2CNC2)c1 [Example 33]
3. CC(Oc1ccc(Cl)cc1OC1CNC1)c1cccc(F)c1 (racemic) [Example 115]
4. FC(F)(F)c1ccc(OCc2ccccc2)c(OC2CNC2)c1 [Example 201, hydrochloride]

[5.87, 8.10, 6.69, 7.25]

For each of the compounds below, state pKi.
1. C[C@@H]1[C@@H](Oc2ccc(Cl)cc2OC2CNC2)CN1Cc1ccccc1 (racemic) [Example 223]
2. COc1ccc(COc2ccc(Br)cc2OC2CNC2)cc1Cl [Example 13]
3. CC(Oc1ccc(Cl)cc1OC1CNC1)c1ccc(Cl)cc1 (racemic) [Example 123]
4. C[C@@H](Oc1ccc(C(F)(F)F)cc1OC1CNC1)c1cccc(C(F)(F)F)c1 (stereo in doubt) [Example 200]

1: 5.05; 2: 8.22; 3: 7.60; 4: 6.65

For each of the compounds below, state pKi.
1. C[C@H](Oc1ccc(Cl)cc1OC1CNC1)c1cccc(C(F)(F)F)c1 [Example 102, trifluoroacetate]
2. Clc1ccc(OCc2csc(-c3cccs3)n2)c(OC2CNC2)c1 [Example 28]

1: 6.02; 2: 6.17
